Source: patent US11840686B2

System: human PKK mRNA
Test: Antisense inhibition of human PKK mRNA in HepaRG cells, 1,000 nM, MOE/deoxy/cEt oligonucleotides (Example 3)
Assay type: cell-based
Settings: HepaRG cells, electroporation with 1,000 nM antisense oligonucleotide, approx. 24 hours, PKK mRNA by RT-PCR (RTS3454), relative to untreated control cells; Table 26 experiment
Strand notation (5' to 3'): a small letter for the sugar, then the base; units joined by * are phosphorothioate-linked, units joined directly phosphodiester-linked; [ ] holds rarer units or linkages, { } end groups; capitals alone tell only the bases. e = 2'-O-(2-methoxyethyl) (MOE); k = constrained ethyl (cEt); [5mC] = 5-methylcytosine; d = 2'-deoxy (DNA)
Note to self: values exactly at 50% are y. So % inhibition at or above 50% is y, below is n.

- substance: "548277 (antisense eG*eG*kA*dT*dT*dG*dG*dA*d[5mC]*d[5mC]*d[5mC]*dA*dG*kA*k[5mC]*eA) [compound 548277]"
  category_label: "y"
- substance: "548287 (eG*eT*k[5mC]*dA*dA*dA*dG*dA*dG*dT*dG*dT*d[5mC]*k[5mC]*kA*e[5mC]; antisense) [compound 548287]"
  category_label: "n"
- substance: "548268 (antisense eT*eG*kT*dG*dT*d[5mC]*dT*dA*dG*dG*dG*dA*dG*kT*kT*eG) [compound 548268]"
  category_label: "y"
- substance: "548269 (antisense eA*eG*k[5mC]*dA*d[5mC]*dA*d[5mC]*dA*dA*dT*dT*dA*d[5mC]*kT*kG*eG) [compound 548269]"
  category_label: "y"
- substance: "548302 (eG*e[5mC]*k[5mC]*dA*dT*dT*dT*dT*dA*dT*d[5mC]*d[5mC]*d[5mC]*kT*kG*eA; antisense) [compound 548302]"
  category_label: "y"
- substance: "548284 (antisense e[5mC]*e[5mC]*k[5mC]*d[5mC]*d[5mC]*dT*dG*dT*dA*dG*dT*dT*dG*kG*k[5mC]*eT) [compound 548284]"
  category_label: "n"
- substance: "531231 (eT*eA*eT*e[5mC]*eA*d[5mC]*dT*dG*dT*dA*d[5mC]*dT*dA*dG*dT*eT*eT*e[5mC]*e[5mC]*eT) [compound 531231]"
  category_label: "n"
- substance: "548229 (e[5mC]*eA*kT*dT*dG*dT*dT*dG*dT*dG*dT*dG*dG*k[5mC]*k[5mC]*e[5mC]; antisense) [compound 548229]"
  category_label: "n"
- substance: "548293 (eG*eT*k[5mC]*dA*d[5mC]*d[5mC]*dA*dG*dA*dA*d[5mC]*d[5mC]*dA*k[5mC]*kA*eT; antisense) [compound 548293]"
  category_label: "n"
- substance: "548280 (antisense e[5mC]*eT*k[5mC]*d[5mC]*d[5mC]*dT*d[5mC]*dT*dG*dT*dA*dA*dT*kG*kA*eT) [compound 548280]"
  category_label: "n"
- substance: "548239 (eT*eA*k[5mC]*dT*d[5mC]*dG*d[5mC]*d[5mC]*dT*dT*dT*dG*dT*kG*kA*e[5mC]; antisense) [compound 548239]"
  category_label: "n"
- substance: "548259 (antisense eG*eT*kG*dA*dT*dG*dA*dA*dA*dG*dT*dA*d[5mC]*kA*kG*e[5mC]) [compound 548259]"
  category_label: "n"
- substance: "548272 (antisense eG*eG*kT*dG*d[5mC]*d[5mC]*dA*d[5mC]*dT*dT*dG*d[5mC]*dT*kT*kG*eG) [compound 548272]"
  category_label: "y"
- substance: "548289 (e[5mC]*eA*kT*dG*dA*dT*dA*d[5mC]*d[5mC]*dA*d[5mC]*dA*d[5mC]*k[5mC]*kA*e[5mC]; antisense) [compound 548289]"
  category_label: "n"
- substance: "548282 (antisense eG*eT*kG*dG*dG*dT*dT*dT*dG*d[5mC]*dA*d[5mC]*dA*kT*kG*eG) [compound 548282]"
  category_label: "y"
- substance: "548295 (e[5mC]*eT*k[5mC]*dT*dG*dA*dT*dT*dG*dG*dG*dT*d[5mC]*kA*k[5mC]*e[5mC]; antisense) [compound 548295]"
  category_label: "n"
- substance: "548285 (antisense eG*e[5mC]*kT*dT*dA*d[5mC]*dT*dT*dA*d[5mC]*dA*dT*d[5mC]*k[5mC]*k[5mC]*eT) [compound 548285]"
  category_label: "y"
- substance: "548263 (antisense e[5mC]*eT*k[5mC]*dT*dA*d[5mC]*dA*dT*dA*d[5mC]*dT*d[5mC]*dA*kG*kG*eA) [compound 548263]"
  category_label: "y"
- substance: "548274 (antisense eT*eA*k[5mC]*d[5mC]*dT*dG*dA*d[5mC]*dA*dA*dG*dT*dG*kG*kT*e[5mC]) [compound 548274]"
  category_label: "n"
- substance: "548254 (antisense e[5mC]*e[5mC]*k[5mC]*dA*dT*dG*d[5mC]*dA*dT*dA*d[5mC]*dT*d[5mC]*kG*k[5mC]*e[5mC]) [compound 548254]"
  category_label: "n"
- substance: "548257 (antisense eA*eG*kT*dG*d[5mC]*dT*d[5mC]*d[5mC]*d[5mC]*d[5mC]*dA*dT*dG*k[5mC]*kA*eT) [compound 548257]"
  category_label: "n"
- substance: "548266 (antisense eT*eT*kG*dG*d[5mC]*d[5mC]*dA*dA*d[5mC]*dT*d[5mC]*dT*dG*kT*kG*eG) [compound 548266]"
  category_label: "n"
